# measured.target: T1, human programmed cell death protein 1 (hPD-1) C93S (aa 24-167) (Homo sapiens, UniProt Q15116, C93S)
# T1 construct: made as a fusion with a TEV site and human Fc; the Fc was cut off with TEV protease; source: Expi293F, purified (Protein A, TEV cleavage of Fc, SEC; monomer fractions); not shown: Fc (human), C-terminal, cleaved
# T1 sequence (Q15116 24-167 C93S): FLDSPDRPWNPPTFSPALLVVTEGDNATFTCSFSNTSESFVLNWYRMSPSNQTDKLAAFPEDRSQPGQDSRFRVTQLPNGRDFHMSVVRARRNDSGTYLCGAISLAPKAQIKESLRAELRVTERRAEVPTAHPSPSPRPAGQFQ
# assay.remarks: SPR; Carterra LSA; Fab from the ammonium sulfate precipitate of the culture supernatant immobilised on a NiHC200M chip; hPD-1 (1-1024 nM) or mPD-1-Fc (4-1024 nM) as analyte, fourfold dilution series, no regeneration; HBS-EP pH 7.4, 25 °C; medians over the spots of a construct, KD = koff/kon
# test.context: one partner purified

binder	koff / s⁻¹
toripalimab Fab L.V99N (Fab, V domains shown, as the heavy chain of Sm3; light chain of Sm3 with this change; numbers count from the chain's first residue; source: Brevibacillus, culture supernatant (ammonium sulfate precipitate); not shown: 6xHis, C-terminal, kept; 6xHN, C-terminal, kept) VH: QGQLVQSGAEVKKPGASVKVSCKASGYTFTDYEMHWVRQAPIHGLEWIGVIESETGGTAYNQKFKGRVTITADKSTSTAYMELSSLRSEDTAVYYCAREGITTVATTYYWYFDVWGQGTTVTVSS VL: DVVMTQSPLSLPVTLGQPASISCRSSQSIVHSNGNTYLEWYLQKPGQSPQLLIYKVSNRFSGVPDRFSGSGSGTDFTLKISRVEAEDVGVYYCFQGSHNPLTFGQGTKLEIK	5.61e-05
toripalimab Fab H.I51Y (Fab, V domains shown, heavy chain of Sm3 with this change; numbers count from the chain's first residue; as the light chain of Sm3; source: Brevibacillus, culture supernatant (ammonium sulfate precipitate); not shown: 6xHis, C-terminal, kept; 6xHN, C-terminal, kept) VH: QGQLVQSGAEVKKPGASVKVSCKASGYTFTDYEMHWVRQAPIHGLEWIGVYESETGGTAYNQKFKGRVTITADKSTSTAYMELSSLRSEDTAVYYCAREGITTVATTYYWYFDVWGQGTTVTVSS VL: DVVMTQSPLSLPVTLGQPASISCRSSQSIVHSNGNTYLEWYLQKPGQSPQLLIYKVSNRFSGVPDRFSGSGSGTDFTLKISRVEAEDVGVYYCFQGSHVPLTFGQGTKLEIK	0.000297
toripalimab Fab L.V99G (Fab, V domains shown, as the heavy chain of Sm3; light chain of Sm3 with this change; numbers count from the chain's first residue; source: Brevibacillus, culture supernatant (ammonium sulfate precipitate); not shown: 6xHis, C-terminal, kept; 6xHN, C-terminal, kept) VH: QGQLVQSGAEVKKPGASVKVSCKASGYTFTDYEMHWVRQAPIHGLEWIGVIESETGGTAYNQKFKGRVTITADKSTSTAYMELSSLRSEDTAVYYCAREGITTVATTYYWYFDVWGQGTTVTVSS VL: DVVMTQSPLSLPVTLGQPASISCRSSQSIVHSNGNTYLEWYLQKPGQSPQLLIYKVSNRFSGVPDRFSGSGSGTDFTLKISRVEAEDVGVYYCFQGSHGPLTFGQGTKLEIK	1.44e-05

Reference source: paper PMC10663500
